Sourced from the Human Domainome abundance scans (Beltran et al. 2025)

B1: Chromodomain-helicase-DNA-binding protein 7, residues 2564 to 2605; numbered along this chain, Q9P2D1 (parent)
chain: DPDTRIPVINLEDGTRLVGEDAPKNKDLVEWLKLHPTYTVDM

# Variants of: B1
# Test: abundance fitness (aPCA) (normalised: wild type 0, dead -1); higher = more abundant; growth selection in yeast, the domain comes from the species named
# Test settings: Homo sapiens
Assign rule met to entries whose abundance fitness meets or exceeds -0.1; assign rule not met to the rest.

{"Sequence": "DPDTRIPVINLEDGTRLVGEDAPKNKDYVEWLKLHPTYTVDM", "Label class": "rule not met"}
{"Sequence": "DPDTRIPVINLEDGTRLVGEDAPKNKDLVEWLKLFPTYTVDM", "Label class": "rule not met"}
{"Sequence": "DPDTRIPVINLEDGTRLVGEDAPKNKDLVEWLKLHPTYTVDK", "Label class": "rule not met"}
{"Sequence": "DPDTRIPVINLEDGFRLVGEDAPKNKDLVEWLKLHPTYTVDM", "Label class": "rule not met"}

Given the entry DPDTRHPVINLEDGTRLVGEDAPKNKDLVEWLKLHPTYTVDM , answer whether its abundance fitness meets or surpasses -0.1.
rule not met

Given the entry DPDTRIPVINLEDGTRLVGEDAPKNKDLREWLKLHPTYTVDM , answer whether its abundance fitness meets or surpasses -0.1.
rule met

Given the entry DPDTRIPVINLEDGTVLVGEDAPKNKDLVEWLKLHPTYTVDM , answer whether its abundance fitness meets or surpasses -0.1.
rule met

Given the entry DPDTRIPVINLEDGTRLVGEDFPKNKDLVEWLKLHPTYTVDM , answer whether its abundance fitness meets or surpasses -0.1.
rule not met
